- Target or test system: MERS RBD-hFc (MERS-CoV (isolate EMC/2012))
- Procedure text: SPR Biacore, captured mAb, 37 C
Measured parameter: t1/2 (min)
Give the number; min is assumed, so skip it.

// query Tell me t1/2 reported for H1H15188P (antibody, V domains shown) VH: QVQLVQSGAEVKKPGSSVKVSCKASGGSFSVYAISWVRQAPGQGLEWMGGIIPIFGTANYAQKFQDRFTITTDESTSTAYMELSSLRSEDTAMYYCAREGDIVVLPAGKGGMDVWGQGTTVTVSS VL: DIVMTQSPLSLPVTPGEPASISCRSSQSLLHGNGYNYLDWYLQKPGQSPQLLIYLVSHRASGVPDRFSGSGSGTDFTLKISRVEAEDVGVYYCMQALQSPWTFGQGTKVEIK
// result 44

// query # return recorded t1/2 for entry H2bM15292N (antibody, V domains shown) VH: QVQLVQSGAEVKKPGSSVKVSCKASGGTFNNYAISWVRQAPGQGLEWMGGIIPFFGTTNYAQKFQDRVTITSDDSTITAYMELSRLRSEDTAVYYCARDEPRRDGYNYYHYYYMDVWGQGTTVTVSS VL: DIQMTQSPSSLSASVGDRVTITCRASQSINSYLNWYQQKPGKAPNLLIYAASSLQSGVPSRFSGSGSGTDFTLTISSLHPEDFATYYCQQSYSTPPITFGQGTRLEIK
// result 22

// query Report measured t1/2; entry is H2aM15279N (antibody, V domains shown) VH: EVQLLESGGGLVQTGGSLRLSCAASGFTFSNYAMSWVRQAPGKGLEWVSAISDRGGSIYYADSVKGRFTISRDNSKNTKYLQMDSLRAEDTAVYYCAQDRGFGVFDYWGQGTLVTVSS VL: DIQMTQSPSSLSASVGDRVTITCQASQDIGNYLNWFQQRPGKAPNLLIYGASNLETGVPSRFSGGGSGTDFTFTISSLQPEDIATYFCQQYDNLPFTFGPGTKVEIK
// result 26

// query Give me measured t1/2, please, for this binder: H1M15289N (antibody, V domains shown) VH: QVQLQESGPGLVKPSETLSLTCTVSGGSISSYYWSWIRQPPGKGLEWIGYIYYSGSANYNPSLKSRVTISVDTSKNQFSLKLSSVTAADTAVYYCVRDRDLLLDHWGQGTLVTVSS VL: EIVMTQSPATLSVSPGKRATLSCRASQSVSSNLAWYQQKPGQAPRLLIYGASTRTTGFPARFSGSGSGTDFTLTISSLQSEDFAVYYCQQYNNWPYTFGQGTMLEIK
// result 92

Continuing:
// query Fill in t1/2 for record H2aM15270N (antibody, V domains shown) VH: EVQLLESGGGLEQPGGSLRLSCAASGFTFSSYAMIWVRQAPGKGLEWVSTISGSGVNTYYADSVKGRFTISRDNSKNTLHLQMNSLRAEDTAVYHCAKEGLDCANGVCYNYYGMDVWGQGTTVTVSS VL: DIQMTQSPSSLSASVGDRVTITCRASQSINSFLNWYHQKPGKAPKFLIYSASNLQSGVPSRFSGSGSGTDFTLTISSLQPEDFSTYYCQQSYSIPLTFGGGTKVEIK
// result 10

Data credit: patent US20190351049A1
